- targetSystem: intracellular GCN2 (phosphorylation of the GCN2 substrate eIF2α) (Homo sapiens, UniProt Q9P2K8)
- Sequence (Q9P2K8 whole entry): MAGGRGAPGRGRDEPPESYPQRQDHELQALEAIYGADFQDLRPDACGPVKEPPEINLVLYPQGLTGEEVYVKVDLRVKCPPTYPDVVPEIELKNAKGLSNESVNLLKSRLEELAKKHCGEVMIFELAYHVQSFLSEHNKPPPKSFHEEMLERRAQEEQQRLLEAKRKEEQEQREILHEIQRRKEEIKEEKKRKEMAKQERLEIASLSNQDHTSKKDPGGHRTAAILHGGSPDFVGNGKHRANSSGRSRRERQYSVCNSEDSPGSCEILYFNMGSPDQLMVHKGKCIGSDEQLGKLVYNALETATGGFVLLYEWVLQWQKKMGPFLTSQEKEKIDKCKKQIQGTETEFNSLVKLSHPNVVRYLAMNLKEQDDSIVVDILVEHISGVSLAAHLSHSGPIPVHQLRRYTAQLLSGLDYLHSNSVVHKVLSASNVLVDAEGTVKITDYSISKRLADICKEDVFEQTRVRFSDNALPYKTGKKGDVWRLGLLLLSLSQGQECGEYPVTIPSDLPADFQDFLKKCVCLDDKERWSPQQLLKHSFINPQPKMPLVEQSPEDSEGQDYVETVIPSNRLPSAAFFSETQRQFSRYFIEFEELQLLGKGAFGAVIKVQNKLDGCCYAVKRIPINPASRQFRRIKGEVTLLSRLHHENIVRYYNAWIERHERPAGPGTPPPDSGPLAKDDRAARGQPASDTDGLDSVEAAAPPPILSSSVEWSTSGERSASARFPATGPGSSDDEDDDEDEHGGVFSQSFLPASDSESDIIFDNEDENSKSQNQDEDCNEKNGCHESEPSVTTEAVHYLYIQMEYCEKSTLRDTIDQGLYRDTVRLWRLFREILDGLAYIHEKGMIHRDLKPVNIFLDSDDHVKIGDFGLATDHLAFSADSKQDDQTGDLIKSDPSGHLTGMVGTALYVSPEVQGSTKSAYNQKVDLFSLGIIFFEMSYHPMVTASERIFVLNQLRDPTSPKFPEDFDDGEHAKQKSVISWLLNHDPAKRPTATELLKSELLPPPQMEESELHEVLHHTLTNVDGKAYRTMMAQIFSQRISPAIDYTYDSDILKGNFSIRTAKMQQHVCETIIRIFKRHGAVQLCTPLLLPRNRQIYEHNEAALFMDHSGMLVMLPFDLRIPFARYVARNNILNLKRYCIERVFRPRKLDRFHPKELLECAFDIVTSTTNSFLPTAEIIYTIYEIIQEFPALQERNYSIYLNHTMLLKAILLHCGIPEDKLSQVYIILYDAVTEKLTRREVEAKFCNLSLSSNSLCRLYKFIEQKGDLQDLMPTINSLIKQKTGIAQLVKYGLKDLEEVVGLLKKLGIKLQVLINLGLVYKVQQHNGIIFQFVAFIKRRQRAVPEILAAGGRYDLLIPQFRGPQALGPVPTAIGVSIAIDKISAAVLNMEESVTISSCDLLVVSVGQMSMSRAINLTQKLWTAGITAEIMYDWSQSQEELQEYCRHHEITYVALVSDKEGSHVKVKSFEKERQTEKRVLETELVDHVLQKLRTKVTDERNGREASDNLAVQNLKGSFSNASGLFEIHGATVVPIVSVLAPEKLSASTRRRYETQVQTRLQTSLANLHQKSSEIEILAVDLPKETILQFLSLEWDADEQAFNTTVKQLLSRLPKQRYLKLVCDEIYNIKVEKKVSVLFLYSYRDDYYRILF
- methodNotes: GCN2 cellular inhibition assay (AlphaScreen SureFire P-eIF2α Ser51, borrelidin-treated U2OS cells)
- Assay type: cell-based
- conditionDetails: compounds of Formula II; biomarker assay, phosphorylated eIF2α Ser51 in borrelidin-treated U2OS cells
measure: IC50

State, in one line, measured IC50 of NC(=O)CC1CN(c2cc(-c3cnc4ccc(C(F)F)nn34)ncn2)CCN1 (centres unmarked)
> 5000 nM

State, in one line, measured IC50 of CS(=O)(=O)NCC1CCCN(c2cc(-c3cnc4ccc(C(F)F)nn34)cc(Cl)n2)C1 (centres unmarked)
500 to 5000 nM

State, in one line, measured IC50 of CS(=O)(=O)NC[C@H]1CCCN(c2cc(-c3cnc4ccc(C(F)F)nn34)ncn2)C1
< 500 nM

State, in one line, measured IC50 of CS(=O)(=O)NCC1CN(c2cc(-c3cnc4ccc(C(F)F)nn34)ncn2)CC(F)(F)C1 (centres unmarked)
< 500 nM

State, in one line, measured IC50 of CC(=O)N1CCN(c2cc(-c3cnc4ccc(N5CCC(N)C5)nn34)ccn2)CC1 (centres unmarked)
> 5000 nM

Entry source: patent US10988477B2
